All values here come from the supplement of paper PMC10567573.

B1: RIPK4 (parent)
chain: RERMELLEEAKKMEMAKFRYILPV

# Variants of: B1
# experiment: protein stability index of a GFP-peptide fusion (GPS, HEK-293T) (PSI 1-6); higher = more stable;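 note: lentivirally expressed fusions sorted by FACS into six bins by GFP to DsRed ratio, PSI derived from sequencing read proportions per bin multiplied by bin number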
# cond: c terminus: a fixed tail appended
readout: protein stability index
Just the number.

Completed entries (count: 5):
{"entrySequence": "RERGELLEEAKKMEMAKFRYILPV", "protein stability index": 5.3}
{"entrySequence": "RERMELLEEAKKMEMAKFRTILPV", "protein stability index": 3.4}
{"entrySequence": "RERMELLQEAKKMEMAKFRYILPV", "protein stability index": 2.03}
{"entrySequence": "RERMELLEEAKKMEMAKFRYINPV", "protein stability index": 3.07}
{"entrySequence": "RERMELLNEAKKMEMAKFRYILPV", "protein stability index": 2.04}

Request: Provide only the value of recorded protein stability index for `RERMELLEEAKSMEMAKFRYILPV`
Result: 2.75

Request: Provide only the value of recorded protein stability index for `RELMELLEEAKKMEMAKFRYILPV`
Result: 2.3

Request: Provide only the value of recorded protein stability index for `RERMELLEEAKKMNMAKFRYILPV`
Result: 2.79

Request: Provide only the value of recorded protein stability index for `RERMELWEEAKKMEMAKFRYILPV`
Result: 2.43

Request: Provide only the value of recorded protein stability index for `RERMELLEEAKKMEMAKFQYILPV`
Result: 3.65

Request: Provide only the value of recorded protein stability index for `REVMELLEEAKKMEMAKFRYILPV`
Result: 2.42

Request: Provide only the value of recorded protein stability index for `RERMLLLEEAKKMEMAKFRYILPV`
Result: 2.75

Request: Provide only the value of recorded protein stability index for `RERMELLEEAKKMEMAKFRYILPT`
Result: 3.78

Request: Provide only the value of recorded protein stability index for `RERMECLEEAKKMEMAKFRYILPV`
Result: 3.05

Request: Provide only the value of recorded protein stability index for `RERMELTEEAKKMEMAKFRYILPV`
Result: 4.19
